Would you kindly list half-life for each of these molecules?
experiment: Pharmacokinetic testing in mice; assay type: in vivo, male CD-1 mice; settings: male, CD-1, plasma; mouse, IV 1 mg/kg; read-out: Half-life T1/2 (converted)
Give just the numeric value; h need not be written.

Query block: // fetch half-life given entry CNC(=O)c1nnc(NC(=O)C2CC2)cc1Nc1cccc(-c2ccc(S(=N)(=O)C(C)C)cn2)c1OC (centres unmarked) [WX-012]
Result block: 4.4

Query block: Output half-life of CNC(=O)c1nnc(NC(=O)C2CC2)cc1Nc1cccc(-c2ncc(S(=N)(=O)C(C)C)cn2)c1OC (centres unmarked) [WX-011]
Result block: 3.2
